assayed.system: panel of more than 300 wild-type and mutant kinases (313 kinase panel) (Homo sapiens, UniProt P35916)
assay.method.text: Kinase profiling in a biochemical assay panel (mobility shift assays and ELISA), %-inhibition at 1 μM; selectivity entropy
experimental.conditions: kinase FLT4; compound at 1 μM
Hi, to clarify the labels: 1.0 covers %-inhibition of FLT4 from 20% upward, 0.0 covers anything below 20%.

Record excerpt, results attached:
compound: CNC(=O)c1cc(Oc2ccc(NC(=O)Nc3ccc(Cl)c(C(F)(F)F)c3)c(F)c2)ccn1
label: 1.0
//
compound: CO[C@H]1C[C@@H]2CC[C@@H](C)[C@@](O)(O2)C(=O)C(=O)N2CCCC[C@H]2C(=O)O[C@H]([C@H](C)C[C@@H]2CC[C@@H](OC(=O)C(C)(CO)CO)[C@H](OC)C2)CC(=O)[C@H](C)/C=C(\C)[C@@H](O)[C@@H](OC)C(=O)[C@H](C)C[C@H](C)/C=C/C=C/C=C/1C
label: 0.0
//
compound: CO[C@H]1C[C@@H]2CC[C@@H](C)[C@@](O)(O2)C(=O)C(=O)N2CCCC[C@H]2C(=O)O[C@H]([C@H](C)C[C@@H]2CC[C@@H](OCCO)[C@H](OC)C2)CC(=O)[C@H](C)/C=C(\C)[C@@H](O)[C@@H](OC)C(=O)[C@H](C)C[C@H](C)/C=C/C=C/C=C/1C
label: 0.0
//
compound: Cc1cn(-c2cc(NC(=O)c3ccc(C)c(Nc4nccc(-c5cccnc5)n4)c3)cc(C(F)(F)F)c2)cn1
label: 0.0
//
compound: COc1cc2c(Nc3ccc(Br)cc3F)ncnc2cc1OCC1CCN(C)CC1
label: 1.0
//
compound: CC(C)(C)c1nc(-c2cccc(NS(=O)(=O)c3c(F)cccc3F)c2F)c(-c2ccnc(N)n2)s1
label: 1.0
//
compound: COc1cc2nccc(Oc3ccc(NC(=O)C4(C(=O)Nc5ccc(F)cc5)CC4)cc3)c2cc1OC [cabozantinib]
label: 1.0
//
compound: COc1cc(Nc2c(C#N)cnc3cc(OCCCN4CCN(C)CC4)c(OC)cc23)c(Cl)cc1Cl
label: 1.0

# input for lookup
query: Hi team, for `O=S(=O)(c1cccc2cnccc12)N1CCCNCC1` , is the recorded %-inhibition of FLT4 at or above 20%?
result: 0.0
